Biological target: MPro^10–306 (Severe acute respiratory syndrome coronavirus 2)
TEST READOUT: Kd (µM)
Give the value, in units of µM, as a plain number.

IN: For the molecule shown here, `CC(C)C[C@H](NC(=O)OCc1ccccc1)C(=O)N[C@H](C=O)C[C@@H]1CCNC1=O` , give the reported Kd.
OUT: 44

* * *

Molecular target: MPro^1–199 (monomeric catalytic domain) (Severe acute respiratory syndrome coronavirus 2)
Format: binding, SARS-CoV-2
Conditions: read-out: Kd range
pKd: −log10 of the molar value.
TEST READOUT: pKd

IN: For the compound shown here, CC(C)C[C@H](NC(=O)OCc1ccccc1)C(=O)N[C@H](C=O)C[C@@H]1CCNC1=O [GC373] , give the reported pKd.
OUT: 4.35 to 4.49

* * *

Molecular target: MPro^1–196 (Severe acute respiratory syndrome coronavirus 2, UniProt P0DTC1)
Construct: MPro^1–196 spans residues 1–196; 6His, spacer and TEV protease cleavage site (N, cleaved yes)
Conditions: read-out: Kd = Ki
TEST READOUT: pKd
Please report pKd as the negative decimal logarithm of the molar concentration, giving only the number.

IN: For the compound shown here, `CC(C)C[C@H](NC(=O)OCc1ccccc1)C(=O)N[C@H](C=O)C[C@@H]1CCNC1=O` , give the reported pKd.
OUT: 4.35
